# System: K-562
# Assay Procedure: NCI60 antitumor screening
# Type: cell-based, human
# Condition Set: 10 μM one-dose, Table 1
Endpoint: GI%

> print(dat)
                               entry.smiles  endpoint      value.reported
1  Cc1ccc(CSc2nc(-c3ccc(F)cc3)c(C#N)c(N3CCOCC3)n2)cc1       GI%  — (GI value > 70%)
2  CN1CCN(c2nc(SCc3ccccc3)nc(-c3ccc(F)cc3)c2C#N)CC1       GI%              73.15%
3  N#Cc1c(-c2ccc(F)cc2)nc(SCc2ccc(F)cc2)nc1N1CCOCC1       GI%  — (GI value > 70%)
4  N#Cc1c(-c2ccc(F)cc2)nc(SCc2ccc([N+](=O)[O-])cc2)nc1N1CCOCC1       GI%  — (GI value > 70%)
5  CN1CCN(c2nc(SCc3ccc(F)cc3)nc(-c3ccc(F)cc3)c2C#N)CC1       GI%  — (GI value > 70%)

Numbers sourced from paper PMC10620772.
